B1: glmS ribozyme (parent)
chain: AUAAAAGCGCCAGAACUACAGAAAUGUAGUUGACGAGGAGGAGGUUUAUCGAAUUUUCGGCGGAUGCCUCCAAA

Variants of: B1
Experiment: KM; higher = weaker cofactor use; RNA array
Conditions: with glucosamine-6-phosphate
// class 0 strictly below 3000 µM in KM; class 1 otherwise

# bool: KM of AUAAAAGCGCCAGAACUACAGAAAUGUAGUUGACGAGGAGGAGCUUAAUCGAAUUUUCGGCGGAUGCCUCCAAA >= 3000 µM
class 0

Where these numbers come from: the supplement of paper PMC7125110
